Just for reference, the RNAGym collection of RNA variant scans (doi:10.1093/molbev/msab373) is where these values come from.

Catalogue of reverse-splicing fitness values
B1: Azoarcus group I ribozyme (parent)
chain: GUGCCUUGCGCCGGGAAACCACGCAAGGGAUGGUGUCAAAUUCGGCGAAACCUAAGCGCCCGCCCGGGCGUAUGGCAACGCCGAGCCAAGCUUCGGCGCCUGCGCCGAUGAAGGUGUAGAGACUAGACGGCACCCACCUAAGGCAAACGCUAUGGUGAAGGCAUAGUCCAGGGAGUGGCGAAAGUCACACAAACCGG

- Variants of: B1
- TEST_NAME: reverse-splicing fitness (ratio to wild type); higher = more active; in vitro selection; Mg2+ level not given
// keep it numeric: no unit symbol after the value

Solved cases below.
MUTANT: C82A A120G C150A C169U
reverse-splicing fitness: 0.0102

MUTANT: C82U A111C A120G A145G C150G C169G U176C
reverse-splicing fitness: 0.0114

QUERY: So what does the record say about reverse-splicing fitness for A111G A145U C150G C169A U176C ?
RESULT: 0.00907
